Please provide measured protein stability index for the entries that follow.
B1: SLC2A12 (parent)
chain: LTLVFFVQITGQPNILFYASTVLK

# Variants of: B1
# test_method_notes: protein stability index of a GFP-peptide fusion (GPS, HEK-293T) (PSI 1-6); higher = more stable;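 note: lentivirally expressed fusions sorted by FACS into six bins by GFP to DsRed ratio, PSI derived from sequencing read proportions per bin multiplied by bin number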
# measurement_setup: c terminus: a fixed tail appended
I'd appreciate a reply containing only the number, no unit.

### Prompt Annotate the variant V22I with its measured protein stability index.
### Response 3.81

### Prompt Supply measured protein stability index of T10F in your reply.
### Response 2.92

### Prompt # return recorded protein stability index for entry T21I
### Response 3.71

### Prompt Give reported protein stability index value for A19K
### Response 2.5

### Prompt Please report the measured protein stability index for G11S
### Response 2.87

### Prompt For S20T , write its protein stability index.
### Response 4.03

Ref: the supplement of paper PMC10567573
